Target: T1, human BCMA expressed on cell surface (H929, OPM-2, CHOK1-hBCMA cells) (human, UniProt Q02223 1-184)
T1 construct: also called cell-surface BCMA; BCMA on cell surface
T1 sequence: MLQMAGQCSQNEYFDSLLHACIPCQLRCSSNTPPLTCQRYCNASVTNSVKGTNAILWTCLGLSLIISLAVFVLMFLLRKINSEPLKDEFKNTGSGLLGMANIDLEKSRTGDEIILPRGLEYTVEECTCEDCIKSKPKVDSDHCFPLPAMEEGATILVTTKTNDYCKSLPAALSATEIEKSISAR
Assay: FACS on H929 cells
property: MFI
API note: the answer field is a bare number with no unit suffix.

mutant antibody 5A6 LM7 (antibody, V domains shown, Light chain CDR mutant of 5A6 (IgG1); heavy chain as 5A6) VH: EVQLLESGGGLVQPGGSLRLSCAASGFTFSNYGVHWVRQAPGKGLEWVSYISYSGGTYYNPSLKSRFTISRDNSKNTLYLQMNSLRAEDTAVYYCARDSDDFGFDYWGQGTLVTVSS VL: QSVLTQPPSASGTPGQRVTISCQGDALRSYYVNWYQQLPGTAPKLLIYDHSKRPTGVPDRFSGSKSGTSASLAISGLRSEDEADYYCQSYESSTVVFGGGTKLTVLG ... 71.1

Next binder, please.
binder anti-BCMA IgG antibody 5A6 (antibody, V domains shown, also called 5A6 WT; 5A6 antibody) VH: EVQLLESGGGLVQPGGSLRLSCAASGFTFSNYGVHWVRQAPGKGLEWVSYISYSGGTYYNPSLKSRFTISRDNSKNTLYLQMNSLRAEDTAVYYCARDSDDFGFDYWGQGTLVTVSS VL: QSVLTQPPSASGTPGQRVTISCQGDSLRSYYVNWYQQLPGTAPKLLIYDHSKRPTGVPDRFSGSKSGTSASLAISGLRSEDEADYYCQSYDSSTVVFGGGTKLTVLG , MFI observed: 68.2
